Reference for the values: patent US20190008947A1

- system_tested: T1, H-2Kb (mouse), P01901
- T1 chain: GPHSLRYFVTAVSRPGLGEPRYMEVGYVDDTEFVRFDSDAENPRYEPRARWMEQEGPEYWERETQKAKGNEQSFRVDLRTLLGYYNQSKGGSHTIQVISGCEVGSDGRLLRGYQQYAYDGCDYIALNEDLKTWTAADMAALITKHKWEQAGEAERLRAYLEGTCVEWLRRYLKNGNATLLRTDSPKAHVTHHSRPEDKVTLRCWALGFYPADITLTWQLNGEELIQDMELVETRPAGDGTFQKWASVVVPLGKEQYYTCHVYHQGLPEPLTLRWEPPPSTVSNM
- measurement_description: ProImmune REVEAL MHC-peptide binding assay, H-2Kb
REVEAL ® score at 0 h values by entry
attribute_measured: REVEAL ® score at 0 h

INSERT INTO assay_data (binder, data_value) VALUES
  ('LSRNSTHEM (modifications not checked)', 51.1),
  ('HATFTMRLL (modifications not checked)', 69.5),
  ('LMCHATFTM (modifications not checked)', 59),
  ('QQRVFKEKV (modifications not checked)', 63.4),
  ('YGLNTFTNM (modifications not checked)', 75.4),
  ('LAPTRVVAA (modifications not checked)', 102),
  ('LMYFHRRDL (modifications not checked)', 54.9),
  ('CHATFTMRL (modifications not checked)', 60.3),
  ('ATFTMRLLS (modifications not checked)', 55.6),
  ('FKPGTSGSP (modifications not checked)', 45.7);
